- PROTOCOL_DETAILS: antimalarial activity against Dd2 strain (AID 2302)
- PARTICULARS: P. falciparum Dd2 in RBCs, LDH growth readout, 72 h; at 2 µM; stronger effect = higher value
Threshold check on growth inhibition: at or above 30% gives true, strictly below gives false.

input: Determine whether this compound has growth inhibition no lower than 30%: CCCCc1ccc(-c2ccc(-c3c(C)[nH]c(C)c(Br)c3=O)cn2)cc1
output: true

input: I'd appreciate it if you could say whether CC=CC1CCNC(C(O)c2ccnc3ccc(OC)cc23)C1 (stereo not given) has growth inhibition at least equal to 30%.
output: false

input: Determine whether this compound has growth inhibition no lower than 30%: CN(CCCN(C)c1cc(NC(=O)c2cccc(F)c2)ccn1)Cc1cccc(O)c1
output: false

input: Test whether the compound O=S(=O)(Nc1cc2c(cc1O)CCN(C1CCC1)CC2)c1ccc(-c2ccc(F)cc2)cc1 records growth inhibition of 30% or higher.
output: true

input: Reported growth inhibition reaches at least 30% for C=C[C@]1(C)C[C@@H](OC(=O)NC(=O)C2CCN(C(=O)CSc3ccccc3)CC2)[C@]2(C)[C@H](C)CC[C@]3(CCC(=O)[C@H]32)[C@@H](C)[C@@H]1O ?
output: true

input: Would you say NC(N)=Nc1ccc(OCCCCCOc2ccc(N=C(N)N)c(Cl)c2)cc1Cl shows growth inhibition at minimum 30%?
output: true

input: Decide: is the reported value of growth inhibition for Cc1nc(Nc2ccncc2)cc(-c2ccncc2)n1 equal to or greater than 30%?
output: false

input: Please indicate if the recorded growth inhibition for CC1(C)N=C(N)N=C(N)N1OCCCCON1C(N)=NC(N)=NC1(C)C meets or exceeds 30%.
output: true

input: Could you please find out whether O=C(CN1CCN(S(=O)(=O)C=Cc2ccccc2)CC1)Nc1cc(C(F)(F)F)ccc1Cl has growth inhibition that meets 30% or exceeds it?
output: true

input: Decide: growth inhibition of Cc1cccc2[nH]c(-c3cccc(-c4ccc(CN5CCN(CCO)CC5)cc4)c3)nc12 >= 30%?
output: true

input: Quick check: does O=C(Nc1ccc(Br)c(C(F)(F)F)c1)c1cccc([N+](=O)[O-])c1 have growth inhibition greater than or equal to 30%?
output: false

input: Please check the record CN(C)CCCN1CCN(C(=O)c2cccc(-c3noc(C(F)(F)F)n3)c2)CC1 and state if its growth inhibition is at or above 30%.
output: true

input: # check: growth inhibition of CCCc1cc(NC2CCN(C)CC2)nc(Nc2cccc(OC)c2)n1 is greater than or equal to 30%
output: false

input: Entry CC(C)COc1ccc(Cl)cc1Cc1ccc(-c2nc3c(F)c(F)ccc3[nH]2)o1 : is its growth inhibition no less than 30%?
output: true

input: Quick check, growth inhibition >= 30%? OCCN1CCN(Cc2cccc(-c3cccc(-c4nc5ccc(F)cc5[nH]4)c3)c2)CC1
output: true

input: Confirm if growth inhibition reported for the compound Oc1ccccc1CCNC1CCc2ccccc2C1 (stereo not given) is 30% or above.
output: true

input: Please tell me: is the compound Cc1ccc2c(c1)c(-c1ccccc1)c(-c1ccccc1)n2CC(O)CN1CCN(CC=Cc2ccccc2)CC1 (stereo not given) at or over 30% in terms of growth inhibition?
output: true

input: Quick check: does CC1(C)CC(NC(=O)NC2CCN(Cc3ccccc3)CC2)CC(C)(CNC(=O)NC2CCN(Cc3ccccc3)CC2)C1 (stereo not given) have growth inhibition greater than or equal to 30%?
output: false

input: # bool: growth inhibition of Cc1[nH]c(C)c(Cc2ccc(Oc3ccc(OC(F)(F)F)cc3)cc2)c(=O)c1Br >= 30%
output: true

input: Reported growth inhibition at or above 30%? O=S(=O)(Nc1ccc(CCN2CCCCC2CCN2CCCC2)cc1)c1cccc2cccnc12 (stereo not given)
output: false
